target: Pyruvate kinase PKLR (Homo sapiens); assay: Inhibition of PKR (unknown origin) at 1 uM relative to control
Record form. Attribute: inhibition. Fill in for each entry.
Supply the numeric figure in %, leaving out any unit text.

Exercise: Form field: reported inhibition of COC(=O)c1cc[n+]2[se]c(C3(O)CCC(F)(F)CC3)c(Br)c2c1
Solution: 29

Exercise: Form field: reported inhibition of COC(=O)c1cc(C)[n+]2[se]c(C3(O)CCCCC3)c(Br)c2c1
Solution: 28

Exercise: Form field: reported inhibition of COC(=O)c1cc[n+]2[se]c(C3([O-])CCCC3)c(Br)c2c1
Solution: 42

Exercise: Form field: reported inhibition of O=C(O)c1cc[n+]2[se]c(C3(O)CCCCC3)c(Br)c2c1
Solution: 5

Exercise: Form field: reported inhibition of COC(=O)c1cc[n+]2[se]c(C3(O)CCCCC3)c(Br)c2c1.[Cl-]
Solution: 21

Exercise: Form field: reported inhibition of COC(=O)c1cc2c(Br)c(C3(O)CCCCC3)[se][n+]2cc1F
Solution: 15

Exercise: Form field: reported inhibition of NC(=O)c1cc[n+]2[se]c(C3(O)CCCCC3)c(Br)c2c1
Solution: 37

Exercise: Form field: reported inhibition of CCCCCCCCCCCCCC(C)(O)c1[se][n+]2ccc(C(N)=O)cc2c1Br (configuration not stated)
Solution: 29

Exercise: Form field: reported inhibition of NC(=O)c1cc[n+]2[se]c(C3(O)CCC(F)(F)CC3)c(Br)c2c1
Solution: 40

Exercise: Form field: reported inhibition of NC(=O)c1cc[n+]2[se]c(C3(O)C4CC5CC(C4)CC3C5)c(Br)c2c1 (configuration not stated)
Solution: 11

Exercise: Form field: reported inhibition of COC(=O)c1cc[n+]2[se]c(C3([O-])CCC3)c(Br)c2c1
Solution: 20

Exercise: Form field: reported inhibition of COC(=O)c1ccc2c(Br)c(C3(O)CCCCC3)[se][n+]2c1
Solution: 39
